Entry source: patent US20240016931A1

- assayed.target: T1, His-tagged cynomolgus monkey TSLP antigen (cynoTSLP-His) (cynomolgus monkey)
- T1 construct: whole entry named
- T1 chain: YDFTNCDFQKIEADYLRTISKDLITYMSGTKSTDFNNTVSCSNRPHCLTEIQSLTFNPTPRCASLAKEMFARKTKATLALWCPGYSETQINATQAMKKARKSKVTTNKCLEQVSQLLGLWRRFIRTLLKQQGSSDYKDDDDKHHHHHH
- assay.comment: Biacore T200, antibody captured on Protein A chip, antigen in flow, 1:1 Langmuir
reported.metric: Kd (nM)
Write the value in nM as a bare number.

Please look up its Kd: hu179-33 (antibody, human IgG1, kappa, V domains shown, IgG1-YTE, kappa; also called hu179VH3-N55V + hu179VL8-N53E) VH: EVQLVQSGAEVKKPGSSVKVSCKASGYTFSNYLIEWVRQAPGQGLEWIGVIDPGVGDTNYNENFKGRATLTADKSTSTAYIELSSLRSEDTAVYYCAREDNTGTAFDYWGQGTTVTVSS VL: SIVMTQTPLSLSVTPGQPASISCKASQSVSSDVTWYLQKPGQSPQLLIYYVSEHYTGVPDRFSGSGYGTDFTLKISRVEAEDVGVYYCQQHHRFPLTFGQGTKLEIKR
0.0304
